subject.of.test: VEGF-A (Homo sapiens, UniProt P15692)
Sequence (P15692 27-191 isoform P15692-4): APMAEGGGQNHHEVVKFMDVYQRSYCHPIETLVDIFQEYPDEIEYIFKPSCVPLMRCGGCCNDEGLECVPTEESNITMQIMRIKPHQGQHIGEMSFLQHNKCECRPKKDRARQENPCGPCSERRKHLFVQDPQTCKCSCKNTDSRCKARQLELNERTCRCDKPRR
measurement.notes: VEGF-A induced sprouting of HUVEC, spheroid-based cellular angiogenesis assay
test.parameters: VEGF-A 25 ng/mL preincubated with compound, 24 h, read-out: VEGF-A1 IC50
Lab note - cut at 20 µM for IC50: Condition met if strictly below, Condition not met if not.

| compound | label.value |
| --- | --- |
| O=C(O)c1cc(O)c(C(=O)Nc2ccccc2-c2nnn[nH]2)cc1O [Ia-001a-Tz] | Condition met |
| O=C(O)c1cc(O)c(C(=O)Nc2ccc(-c3nnn[nH]3)cc2)cc1O [Ia-003a-Tz] | Condition met |
| O=C(O)c1cc(O)cc(C(=O)Nc2ccccc2-c2nnn[nH]2)c1O [IIa-001a-Tz] | Condition not met |
| O=C(O)c1cc(O)c(C(=O)Nc2cnccc2C(=O)O)cc1O [Ia-023a] | Condition not met |
| O=C(O)Cc1cc(O)c(C(=O)Nc2ccccc2C(=O)O)cc1O [IIIa-001a] | Condition not met |
| O=C(O)c1cc(O)c(C(=O)Nc2ccccc2C(=O)O)cc1O [Ia-001a] | Condition met |
| O=C(O)Cc1cc(O)c(C(=O)Nc2cc(C(=O)O)cc(C(=O)O)c2)cc1O [IIIa-015a] | Condition not met |
| O=C(O)c1ccc(NC(=O)c2cc(O)cc(C(=O)O)c2O)cc1C(=O)O [IIa-014a] | Condition not met |
| O=C(O)c1cc(NC(=O)c2cc(O)c(C(=O)O)cc2O)cc(C(=O)O)c1 [Ia-015a] | Condition met |

###

subject.of.test: FGF-2 (Homo sapiens, UniProt P09038)
Sequence (P09038 134-288): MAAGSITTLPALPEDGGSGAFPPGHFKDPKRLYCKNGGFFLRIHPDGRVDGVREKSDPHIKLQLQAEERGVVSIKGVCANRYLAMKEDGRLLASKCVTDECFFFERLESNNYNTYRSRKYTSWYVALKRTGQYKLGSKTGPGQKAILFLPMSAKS
measurement.notes: FGF-2 induced sprouting of HUVEC, spheroid-based cellular angiogenesis assay
test.parameters: FGF-2 25 ng/mL preincubated with compound, 24 h
pIC50: −log10 of the molar value.
# pIC50 per record follows

| compound | pIC50 |
| --- | --- |
| O=C(O)c1cc(O)cc(C(=O)Nc2cccc(C(=O)O)c2C(=O)O)c1O [IIa-011a] | 3.91 |
| O=C(O)c1cc(O)cc(C(=O)Nc2ccccc2S(=O)(=O)O)c1O [IIa-001c] | 4.15 |
| O=C(O)c1cc(O)c(C(=O)NC(Cc2ccc(O)c(O)c2)C(=O)O)cc1O (centres unmarked) [Ia-035a-3] | 3.68 |
| O=C(O)c1cc(O)c(C(=O)Nc2ccccc2S(=O)(=O)O)cc1O [Ia-001c] | 4.89 |
| O=C(O)c1cccc(NC(=O)c2cc(O)cc(C(=O)O)c2O)c1 [IIa-002a] | 3.88 |
